Test system: T24 Human Bladder Cancer Cells
EXPERIMENT_SUMMARY: MTT cytotoxicity assay against T24 cells
Type: cell-based
EXPERIMENTAL_SETUP: Homo sapiens, T-24, 48 h, incubation time 2 days; compound alone; read-out: CD50 of compounds tested Individually
Procedure: After 1 or 2 days of incubation at 37° C. in humidified CO2 in air, a colorimetric MTT assay (see below) was performed to evaluate the number of remaining viable T24 cells in each well. […] The CD50 values were interpolated from the curves generated using 12 serial dilutions. […] Values shown are the mean±standard error of three experiments with six readings per experiment.
// reported IC50 for each item listed
# unit: µM | format: bare number

O=C1O[C@H]([C@@H](O)CO)C([O-])=C1O.[Na+] [VC, sodium ascorbate] ... 896

Shifting focus to the molecule that follows.
For this molecule ( Oc1ccc(C#Cc2ccc(O)cc2)cc1 [HT-1, 4,4′-dihydroxytolan] ), measured IC50 is 10.5

---

Test system: T24 Human Bladder Cancer Cells
EXPERIMENT_SUMMARY: MTT cytotoxicity assay against T24 cells
Format: cell-based
EXPERIMENTAL_SETUP: Homo sapiens, T-24, read-out: CD50 of each compound tested in combination after pretreatment with VC and VK3, incubation time 1 day; VC:HT-1 200:1 mixture; 2 h pretreatment with 150 μM VC and 1.5 μM VK3
// reported pIC50 for each item listed
API: returns pIC50 as number; meaning -log10 of concentration in mol/L.

Oc1ccc(C#Cc2ccc(O)cc2)cc1 [HT-1, 4,4′-dihydroxytolan] ... 5.95

Shifting focus to the compound that follows.
For this compound ( O=C1O[C@H]([C@@H](O)CO)C([O-])=C1O.[Na+] [VC, sodium ascorbate] ), measured pIC50 is 3.65

Attribution: patent US8680142B2
